# assay.conditions: in water, 340.35 K
readout.kind: solubility (mole fraction)

* C1N2CN3CN1CN(C2)C3 | 0.0914

* * *

# assay.conditions: in water, 330.45 K
readout.kind: solubility (mole fraction)

• C1N2CN3CN1CN(C2)C3 = 0.0891

* * *

# assay.conditions: in acetic acid, 321.91 K
readout.kind: solubility (mole fraction)

• C1N2CN3CN1CN(C2)C3 = 0.249

* * *

# assay.conditions: in water, 307.4 K
readout.kind: solubility (mole fraction)

* C1N2CN3CN1CN(C2)C3 | 0.0959

* * *

# assay.conditions: in methanol, 323.65 K
readout.kind: solubility (mole fraction)

* C1N2CN3CN1CN(C2)C3 | 0.032
